Test system: Escherichia coli TOP10;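 also: peptides expressed intracellularly from a pBAD plasmid library in pooled LB shake-flask culture, induced with 0.3% L-arabinose, DNA abundance read by NGS, three biological replicates, DESeq2 with apeglm shrinkage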
Experiment: shrunken log2 fold change of peptide-encoding DNA abundance (4.5 h post-induction vs induction); higher = less antimicrobial activity (less host growth inhibition)
Conditions: time post-induction: 4.5 h; library: site-saturation at positions 5, 18, 19, 20
Decision: shrunken log2 fold change >= -0.05 yields 1, all other cases yield -1.

Solved entries (count: 5):
* RRIRDRPPRLPRPRPRPKRVPRP | -1
* RRIRSRPPRLPRPRPRPSIHPRP | -1
* RRIRTRPPRLPRPRPRPYNQPRP | -1
* RRIRARPPRLPRPRPRPLVWPRP | 1
* RRIRHRPPRLPRPRPRPEHIPRP | -1

--- query ---
API: above_or_equal(metric=shrunken log2 fold change, cutoff=-0.05) for item RRIRARPPRLPRPRPRPKNNPRP -1

Taken from the supplement of paper PMC9112550.
